Target: Muscarinic acetylcholine receptor M1 (Rattus norvegicus) (UniProt P08482)
Sequence (P08482 whole entry, looked up): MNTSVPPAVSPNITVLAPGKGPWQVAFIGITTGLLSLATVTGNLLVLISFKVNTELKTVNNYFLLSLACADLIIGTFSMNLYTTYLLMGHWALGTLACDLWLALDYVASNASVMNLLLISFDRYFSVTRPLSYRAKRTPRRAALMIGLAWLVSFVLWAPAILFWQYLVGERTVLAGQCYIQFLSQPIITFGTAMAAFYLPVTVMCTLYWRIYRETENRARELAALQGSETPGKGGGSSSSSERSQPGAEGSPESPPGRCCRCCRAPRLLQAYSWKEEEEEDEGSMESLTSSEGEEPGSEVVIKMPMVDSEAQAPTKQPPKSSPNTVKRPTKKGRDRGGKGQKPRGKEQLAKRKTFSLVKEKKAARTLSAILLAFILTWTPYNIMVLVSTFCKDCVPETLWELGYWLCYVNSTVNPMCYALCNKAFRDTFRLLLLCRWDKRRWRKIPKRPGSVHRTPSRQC
Experiment: blockers of ACh-evoked M1 calcium signal – CHO cells, Fluo-4 calcium, duplicate, confirmation (AID 677);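 note: raw fluorescence intensity difference in arbitrary instrument units and not normalized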
Settings: ACh EC80 antagonism, at 10 µM
About 720 (42%) of roughly 1,700 compounds were called active.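 Rule for the calls: active = calcium response below the same-plate mean of wells given acetylcholine alone at its 80%-effect dose, minus 3 SD; inactive = the rest.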 The set was probably picked from earlier hits. The list is a sample of the results.
Classes used: active, inactive

{"compound": "Cn1c(CCN2CCCCCC2)nc2cc(NC(=O)Nc3ccccc3)ccc21", "category": "active"}
{"compound": "N#CC(C(=O)c1ccc(S(=O)(=O)N2CCCCCC2)cc1)c1nc2ccccc2[nH]1 (stereo not drawn)", "category": "inactive"}
{"compound": "COCCN(C(=O)CCC(=O)Nc1ccccn1)C(C(=O)NCCC(C)C)c1ccc(OC)cc1 (stereo not drawn)", "category": "inactive"}
